Cited source for all entries: paper PMC5009064

Biological target: T1, HOIP-PUB domain (UniProt Q96EP0 71-142)
T1 construct: PUB domain of HOIP, as used for ITC; also called PUB domain of HOIP
T1 sequence (looked up): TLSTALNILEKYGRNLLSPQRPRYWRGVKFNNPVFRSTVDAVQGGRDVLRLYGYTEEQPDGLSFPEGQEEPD
Test: ITC; 293 K, ITC-200; 25 mM HEPES pH 7.5, 150 mM NaCl, 0.5 mM TCEP; 20 injections of 2 ul HOIP-PUB domain into peptide or domain in the cell; 1:1 binding model
Details: both partners purified
pKd: −log10 of the molar value.
measurement-label: pKd

RGTYFSTQDDVDLYTDSEPR (SPATA2 PIM peptide; also called SPATA2 peptide; PIM of SPATA2) [peptide derived from the C-terminal region of SPATA2] | 6.05
